Ref: paper PMC10663500

So I've got a bunch of binders here, and I need their pKd values.
- system: T1, mouse programmed cell death protein 1 Fc fusion protein (mPD-1-Fc), mPD-1 C60S (aa 25-167) (Mus musculus, UniProt Q02242, stabilised)
- T1 construct: not cleaved; source: Expi293F, purified (Protein A, SEC; dimeric fraction); not shown: Fc (human), C-terminal, kept
- experimental details: SPR; Carterra LSA; Fab from the ammonium sulfate precipitate of the culture supernatant immobilised on a NiHC200M chip; hPD-1 (1-1024 nM) or mPD-1-Fc (4-1024 nM) as analyte, fourfold dilution series, no regeneration; HBS-EP pH 7.4, 25 °C; medians over the spots of a construct, KD = koff/kon
- condition details: one partner purified
Please keep in mind that pKd is minus log10 of the molar concentration; only the number is needed.

Q. Quick one: pKd of toripalimab Fab H.M34A (Fab, V domains shown, heavy chain of Sm3 with this change; numbers count from the chain's first residue; as the light chain of Sm3; source: Brevibacillus, culture supernatant (ammonium sulfate precipitate); not shown: 6xHis, C-terminal, kept; 6xHN, C-terminal, kept) VH: QGQLVQSGAEVKKPGASVKVSCKASGYTFTDYEAHWVRQAPIHGLEWIGVIESETGGTAYNQKFKGRVTITADKSTSTAYMELSSLRSEDTAVYYCAREGITTVATTYYWYFDVWGQGTTVTVSS VL: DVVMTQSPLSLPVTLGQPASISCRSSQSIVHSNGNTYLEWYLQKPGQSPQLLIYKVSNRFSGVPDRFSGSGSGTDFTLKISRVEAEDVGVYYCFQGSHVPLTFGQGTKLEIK ?
A. 6.82

Q. Same question for toripalimab Fab H.G66Y (Fab, V domains shown, heavy chain of Sm3 with this change; numbers count from the chain's first residue; as the light chain of Sm3; source: Brevibacillus, culture supernatant (ammonium sulfate precipitate); not shown: 6xHis, C-terminal, kept; 6xHN, C-terminal, kept) VH: QGQLVQSGAEVKKPGASVKVSCKASGYTFTDYEMHWVRQAPIHGLEWIGVIESETGGTAYNQKFKYRVTITADKSTSTAYMELSSLRSEDTAVYYCAREGITTVATTYYWYFDVWGQGTTVTVSS VL: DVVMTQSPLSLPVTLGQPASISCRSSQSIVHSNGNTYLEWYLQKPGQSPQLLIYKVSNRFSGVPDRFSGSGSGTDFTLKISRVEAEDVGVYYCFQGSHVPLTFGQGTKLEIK please.
A. 6.41

Q. Same question for toripalimab Fab L.P100N (Fab, V domains shown, as the heavy chain of Sm3; light chain of Sm3 with this change; numbers count from the chain's first residue; source: Brevibacillus, culture supernatant (ammonium sulfate precipitate); not shown: 6xHis, C-terminal, kept; 6xHN, C-terminal, kept) VH: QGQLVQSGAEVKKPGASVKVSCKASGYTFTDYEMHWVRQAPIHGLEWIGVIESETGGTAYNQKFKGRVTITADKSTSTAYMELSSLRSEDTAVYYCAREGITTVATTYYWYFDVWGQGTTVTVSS VL: DVVMTQSPLSLPVTLGQPASISCRSSQSIVHSNGNTYLEWYLQKPGQSPQLLIYKVSNRFSGVPDRFSGSGSGTDFTLKISRVEAEDVGVYYCFQGSHVNLTFGQGTKLEIK please.
A. 7.80
